TARGET_DESC: human glucagon receptor (human) (UniProt P47871)
Sequence (P47871 26-477): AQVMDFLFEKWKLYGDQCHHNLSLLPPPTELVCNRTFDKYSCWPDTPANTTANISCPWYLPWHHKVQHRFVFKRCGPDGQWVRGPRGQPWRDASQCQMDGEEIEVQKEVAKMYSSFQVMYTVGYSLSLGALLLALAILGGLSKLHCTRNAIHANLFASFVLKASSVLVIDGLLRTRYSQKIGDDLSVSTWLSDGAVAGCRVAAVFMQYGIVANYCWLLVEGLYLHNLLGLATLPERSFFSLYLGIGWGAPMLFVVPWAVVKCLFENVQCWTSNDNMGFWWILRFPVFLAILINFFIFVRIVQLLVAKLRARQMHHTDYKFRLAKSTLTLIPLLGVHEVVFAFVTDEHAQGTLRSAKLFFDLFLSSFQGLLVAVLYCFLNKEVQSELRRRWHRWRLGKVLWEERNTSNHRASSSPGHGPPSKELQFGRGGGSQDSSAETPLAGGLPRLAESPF
ASSAY_DETAILS: cell-based or functional assay

BINDER	cAMP Rel EC50
YXQGTFTSDXSQXLDKKAQXAFIEYLIEXGPSSGAPPPSGSGE (not fully specified; C-terminus uncertain, likely amide; synthetic construct; SITE 2: note = 2-Aminoisobutyric Acid; SITE 10: note = 3-(4-Pyridyl)-L-alanine; SITE 13: note = alpha-methyl-leucine; SITE 17: note = Lysine is chemically modified through conjugation of the epsilon-amino group of the Lysine side chain with (gamma-Glu)2-CO-(CH2)16-CO2H; SITE 20:) [Example 891 (SEQ ID NO: 897)]	581 nM
YXQGTFTSDFSQXLDKKAQXAFIEYLIAGGPSSGAPPPSGS (synthetic construct; SITE 2: note = 2-Aminoisobutyric Acid; SITE 13: note = alpha-methyl-leucine; SITE 17: note = Lysine is chemically modified through conjugation of the epsilon-amino group of the Lysine side chain with (2-[2-(2-Amino-ethoxy)-ethoxy]-acetyl)-(gamma-Glu)-CO-(CH2) 16-CO2H; SITE 20: n) [Example 875 (SEQ ID NO: 881)]	689 nM
YXQGTFTSDXSQXLDKKAQXAFIEYLIEXGPSSGAPPPSGSGE (not fully specified; synthetic construct; SITE 2: note = 2-Aminoisobutyric Acid; SITE 10: note = 3-(4-Pyridyl)-L-alanine; SITE 13: note = alpha-methyl-leucine; SITE 17: note = Lysine is chemically modified through conjugation of the epsilon-amino group of the Lysine side chain with (gamma-Glu)2-CO-(CH2)16-CO2H; SITE 20:) [Example 893 (SEQ ID NO: 899)]	508 nM
